# ASSAY SYSTEM: Ba/F3 ERBB2 A775_G776insYVMA (Homo sapiens, UniProt P04626, DUP772-775, cells depend on it)
# Sequence (P04626 with tags, fused parts or gaps DUP772-775): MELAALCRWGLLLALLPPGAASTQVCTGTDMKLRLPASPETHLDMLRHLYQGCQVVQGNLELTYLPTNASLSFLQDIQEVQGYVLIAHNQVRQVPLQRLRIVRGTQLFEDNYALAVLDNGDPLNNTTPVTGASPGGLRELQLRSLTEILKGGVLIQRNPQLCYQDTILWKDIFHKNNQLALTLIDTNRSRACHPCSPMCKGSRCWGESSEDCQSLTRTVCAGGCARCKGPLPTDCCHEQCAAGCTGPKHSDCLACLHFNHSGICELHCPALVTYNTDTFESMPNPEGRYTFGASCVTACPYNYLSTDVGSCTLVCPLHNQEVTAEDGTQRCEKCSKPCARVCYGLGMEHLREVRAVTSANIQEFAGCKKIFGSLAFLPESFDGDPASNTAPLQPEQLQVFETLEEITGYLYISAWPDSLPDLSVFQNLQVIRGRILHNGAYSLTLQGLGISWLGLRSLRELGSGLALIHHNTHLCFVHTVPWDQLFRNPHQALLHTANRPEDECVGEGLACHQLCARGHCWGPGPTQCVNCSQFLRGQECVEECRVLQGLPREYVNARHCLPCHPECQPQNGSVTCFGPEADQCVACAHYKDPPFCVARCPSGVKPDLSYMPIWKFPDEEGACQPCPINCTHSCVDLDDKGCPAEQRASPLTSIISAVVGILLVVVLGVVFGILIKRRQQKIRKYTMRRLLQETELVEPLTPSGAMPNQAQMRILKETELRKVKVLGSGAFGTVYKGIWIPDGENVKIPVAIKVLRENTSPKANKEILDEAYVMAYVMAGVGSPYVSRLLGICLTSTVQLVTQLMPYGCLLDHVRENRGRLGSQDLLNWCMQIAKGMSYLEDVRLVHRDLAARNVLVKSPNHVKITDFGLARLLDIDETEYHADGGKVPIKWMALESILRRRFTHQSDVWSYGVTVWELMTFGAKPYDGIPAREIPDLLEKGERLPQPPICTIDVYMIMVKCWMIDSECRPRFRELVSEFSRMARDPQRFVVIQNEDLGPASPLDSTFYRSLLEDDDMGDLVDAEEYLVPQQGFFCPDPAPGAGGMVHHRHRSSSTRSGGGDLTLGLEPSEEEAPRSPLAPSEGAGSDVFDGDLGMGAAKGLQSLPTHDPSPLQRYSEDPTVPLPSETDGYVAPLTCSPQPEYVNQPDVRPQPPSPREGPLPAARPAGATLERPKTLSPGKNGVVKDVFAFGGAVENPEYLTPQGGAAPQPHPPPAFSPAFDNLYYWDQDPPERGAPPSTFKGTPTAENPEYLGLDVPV
# ASSAY PROCEDURE: Cell viability assay, Ba/F3 ERBB2 A775_G776insYVMA
# Format: cell-based, mouse
# EXPERIMENTAL CONDITIONS: Ba/F3 ERBB2 YVMA cells, cell viability, 72 hours, CellTiter Glo; Table B5; read-out: Ba/F3 ERBB2 YVMA, IC50
Kindly supply the reported GI50 values for the records listed here.
One number for each entry, in µM.

// worked examples, GI50 included
>>> measured_value("Cc1cc(Nc2ncnc3ccc(N4CC/C(=C\\CN(C)C)C4=O)nc23)ccc1Cc1ccc2c(c1)ncn2C")
0.00537
>>> measured_value("Cc1cc(Nc2ncnc3cnc(N4CC/C(=C\\CN(C)C)C4=O)cc23)ccc1Oc1ccn2nnnc2c1")
0.0813
>>> measured_value("Cc1cc(Nc2ncnc3cnc(N4CC(C)/C(=C\\CN(C)C)C4=O)cc23)c(F)cc1Oc1ccc2c(c1)nnn2C (single isomer, unassigned) [Example S115, Enantiomer #1]")
0.0113

Take each entry in turn and give its GI50.
1. C=C1C(=O)N(c2ccc3ncnc(Nc4ccc(Cc5ccn6ncnc6c5)c(C)c4)c3c2)C2CC12 (single isomer, unassigned) [Example S79, Enantiomer #2]
2. Cc1cc(Nc2ncnc3ccc(N4CC/C(=C\CN(C)C)C4=O)nc23)ccc1Oc1ccn2ccnc2c1
3. C=C1CCCN(c2cc3c(Nc4ccc(Oc5ccc6c(c5)ncn6C)c(C)c4)ncnc3cn2)C1=O
4. CN(C)C/C=C1\CCN(c2ccc3ncnc(Nc4ccc(Oc5ccc6c(c5)ncn6C)c(F)c4)c3n2)C1=O
5. Cc1cc(Nc2ncnc3ccc(N4CC/C(=C/CN(C)C)C4=O)nc23)ccc1Oc1ccc2c(c1)ncn2C
6. Cc1cc(Nc2ncnc3ccc(N4CC/C(=C\CN(C)C)C4=O)nc23)ccc1Oc1ccn2c(C)cnc2c1

Result:
1. 0.0137
2. 0.00256
3. 0.0243
4. 0.00208
5. 0.00473
6. 0.00386

---

# ASSAY SYSTEM: phosphorylated EGFR (pEGFR) (Homo sapiens)
# Construct: performed to measure phosphorylated EGFR levels using A431 cells (10% FBS); endogenous in cells
# Sequence (P00533 25-1210): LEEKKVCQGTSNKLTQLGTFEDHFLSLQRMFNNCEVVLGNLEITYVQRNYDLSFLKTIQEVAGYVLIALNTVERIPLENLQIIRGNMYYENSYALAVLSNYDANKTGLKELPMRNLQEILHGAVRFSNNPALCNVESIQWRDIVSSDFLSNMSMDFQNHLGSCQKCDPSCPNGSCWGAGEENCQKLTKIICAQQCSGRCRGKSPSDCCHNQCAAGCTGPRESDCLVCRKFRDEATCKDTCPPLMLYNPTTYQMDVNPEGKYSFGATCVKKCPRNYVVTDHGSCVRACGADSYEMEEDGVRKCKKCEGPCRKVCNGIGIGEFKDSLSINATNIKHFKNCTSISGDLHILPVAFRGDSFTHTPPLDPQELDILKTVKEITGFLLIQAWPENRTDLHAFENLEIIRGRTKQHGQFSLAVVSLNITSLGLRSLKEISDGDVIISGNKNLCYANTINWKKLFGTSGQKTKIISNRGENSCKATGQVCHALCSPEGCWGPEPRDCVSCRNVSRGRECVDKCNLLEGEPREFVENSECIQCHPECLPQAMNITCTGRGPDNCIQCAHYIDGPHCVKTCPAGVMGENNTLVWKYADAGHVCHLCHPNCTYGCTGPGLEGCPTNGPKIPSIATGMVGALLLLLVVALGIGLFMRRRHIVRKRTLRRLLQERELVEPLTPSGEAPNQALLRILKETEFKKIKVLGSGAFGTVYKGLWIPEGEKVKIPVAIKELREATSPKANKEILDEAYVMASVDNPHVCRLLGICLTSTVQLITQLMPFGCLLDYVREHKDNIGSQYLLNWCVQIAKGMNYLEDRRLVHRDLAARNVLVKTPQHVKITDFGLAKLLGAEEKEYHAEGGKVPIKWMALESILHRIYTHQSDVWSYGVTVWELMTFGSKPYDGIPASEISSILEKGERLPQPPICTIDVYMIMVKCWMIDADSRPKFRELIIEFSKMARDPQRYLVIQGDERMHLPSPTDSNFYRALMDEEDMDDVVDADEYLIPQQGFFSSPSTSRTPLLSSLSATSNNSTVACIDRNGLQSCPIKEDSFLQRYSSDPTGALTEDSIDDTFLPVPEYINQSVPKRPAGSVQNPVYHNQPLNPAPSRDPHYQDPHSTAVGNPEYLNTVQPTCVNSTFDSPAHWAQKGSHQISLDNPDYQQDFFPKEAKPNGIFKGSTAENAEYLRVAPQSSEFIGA
# ASSAY PROCEDURE: Detection of phosphorylated EGFR (pEGFR) in EGF-stimulated A431 cells
# EXPERIMENTAL CONDITIONS: A431 cells (10% FBS), 4 hours incubation, EGF 30 ng/mL 10 minutes, AlphaLISA
pIC50: −log10 of the molar value. Counter-ions that a name gives are not always drawn.
MEASUREMENT TYPE: pIC50

Example entries begin here.
>>> measured_value("Cc1cc(Nc2c(C#N)cnc3ccc(N4CC/C(=C\\CN(C)C)C4=O)nc23)ccc1Oc1ccc2c(c1)ncn2C [Compound 124]")
"< 5.00"
>>> measured_value("Cc1cc(Nc2ncnc3ccc(N4CC/C(=C\\CN(C)C)C4=O)cc23)ccc1Oc1ccn2ncnc2c1 [Compound 18, hydrochloride]")
"< 5.02"
>>> measured_value("Cc1cc(Nc2ncnc3ccc(N4CC(C)C(=CCN(C)C)C4=O)nc23)ccc1Oc1ccc2c(c1)nnn2C (single isomer, unassigned) [Example S126, Enantiomer #2]")
"< 5.00"
>>> measured_value("Cc1cc(Nc2ncnc3ccc(N4CC/C(=C\\CN(C)C)C4=O)nc23)c(F)cc1Oc1ccn2ncnc2c1 [Compound 79]")
"< 5.00"
>>> measured_value("CN(C)C/C=C1\\CCN(c2cc3c(Nc4cc(Cl)c(Oc5ccn6ncnc6c5)cc4F)ncnc3cn2)C1=O [Compound 133]")
5.94

Answer for every listed entry: what is its pIC50? The entries follow.
1. Cc1cc(Nc2ncnc3ccc(N4CC(C)C(=CCN(C)C)C4=O)nc23)ccc1Oc1ccn2ncnc2c1 (single isomer, unassigned) [Example S98, Enantiomer #1]
2. Cc1cc(Nc2ncnc3ccc(N4CC/C(=C\CN(C)C)C4=O)nc23)ccc1Oc1ccn2ccnc2c1 [Compound 71]
3. Cc1cc(Nc2ncnc3cnc(N4CC(C)/C(=C\CN(C)C)C4=O)cc23)c(F)cc1Oc1ccc2c(c1)nnn2C (single isomer, unassigned) [Example S115, Enantiomer #2]

Result:
1. 6.80
2. 6.56
3. < 5.00

---

Assignment: determine reported IC50 for the given compounds.
# ASSAY SYSTEM: phosphorylated EGFR (pEGFR) (Homo sapiens)
# Construct: performed to measure phosphorylated EGFR levels using A431 cells (10% FBS); endogenous in cells
# ASSAY PROCEDURE: Detection of phosphorylated EGFR (pEGFR) in EGF-stimulated A431 cells
# EXPERIMENTAL CONDITIONS: A431 cells (10% FBS), 4 hours incubation, EGF 30 ng/mL 10 minutes, AlphaLISA
One number for each entry, in nM.

Recorded results for 4 compounds are shown here.
>>> measured_value("Cc1cc(Nc2ncnc3cnc(N4CC(C)/C(=C\\CN(C)C)C4=O)cc23)c(F)cc1Oc1ccc2c(c1)nnn2C (single isomer, unassigned) [Example S115, Enantiomer #1]")
1000
>>> measured_value("C=C1CCN(c2cc3c(Nc4ccc(Oc5ccn6ncnc6c5)c(C)c4)ncnc3cn2)C1=O [Compound 28]")
355
>>> measured_value("Cc1cc(Nc2ncnc3ccc(N4CC/C(=C\\CN(C)C)C4=O)nc23)ccc1Oc1ccc2nccnc2c1 [Compound 61]")
1010
>>> measured_value("Cc1cc(Nc2ncnc3ccc(N4CC/C(=C/CN(C)C)C4=O)nc23)ccc1Oc1ccc2c(c1)ncn2C [Compound 83]")
6030

Hi! Can you tell me IC50 for each of these compounds?
1. CC1CN(c2cc3c(Nc4cc(F)c(Oc5ccc6c(c5)nnn6C)cc4F)ncnc3cn2)C(=O)/C1=C/CN(C)C (single isomer, unassigned) [Example S125, Enantiomer #2]
2. [2H]C([2H])([2H])N(C/C=C1\CCN(c2ccc3ncnc(Nc4ccc(Oc5ccc6c(c5)ncn6C([2H])([2H])[2H])c(C)c4)c3n2)C1=O)C([2H])([2H])[2H] [Compound 106]
3. Cc1cc(Nc2ncnc3ccc(N4C(=O)C(=CCN(C)C)C5CC54)nc23)ccc1Oc1ccn2ncnc2c1 (single isomer, unassigned) [Example S108, Enantiomer #1]

Result:
2300
1690
6680

For each of the items listed, what is its IC50?
1. C=C1C(=O)N(c2ccc3ncnc(Nc4ccc(Oc5ccn6ncnc6c5)c(C)c4)c3c2)C[C@H]1C [Compound 20]
2. C=C1CCN(c2ccc3ncnc(Nc4ccc(Sc5ccn6ncnc6c5)c(C)c4)c3c2)C1=O [Compound 13]
3. C=C1C(=O)N(c2ccc3ncnc(Nc4ccc(Oc5ccc6c(c5)ncn6C)c(C)c4)c3c2)C[C@@H]1C [Compound 41]
4. [2H]C([2H])([2H])N(C/C=C1\CCN(c2ccc3ncnc(Nc4ccc(Oc5ccc6c(c5)ncn6C)c(C)c4)c3n2)C1=O)C([2H])([2H])[2H] [Compound 105]

Result:
1: 586; 2: 571; 3: 4490; 4: 503

Could you tell me IC50 for each of these compounds? They are listed below.
1. Cc1cc(Nc2ncnc3cnc(N4CC(C)/C(=C\CN(C)C)C4=O)cc23)ccc1Oc1ccc2c(c1)nnn2C (single isomer, unassigned) [Example S86, Enantiomer #1]
2. CN(C)C/C=C1\CCN(c2cc3c(Nc4ccc(Oc5cccnc5)c(F)c4)ncnc3cn2)C1=O [Compound 125]

Result:
574
1140

List IC50 for every entry below, keeping the order given.
1. C=C1CCN(c2cc3c(Nc4ccc(Oc5ccc6c(c5)ncn6C)c(C)c4)ncnc3cn2)C1=O [Compound 39]
2. Cc1cc(Nc2ncnc3ccc(N4CC/C(=C\CCN(C)C)C4=O)nc23)ccc1Oc1ccn2ncnc2c1 [Compound 48]
3. CC1CN(c2cc3c(Nc4ccc(Oc5ccc6c(c5)nnn6C)c(F)c4)ncnc3cn2)C(=O)/C1=C/CN(C)C (single isomer, unassigned) [Example S117, Enantiomer #1]

Result:
1: 497; 2: 63.5; 3: 968

---

# Tested on: BT-474
# ASSAY PROCEDURE: Cell viability assay (CellTiter Glo), BT-474
# Assay type: cell-based
# EXPERIMENTAL CONDITIONS: Homo sapiens; BT-474 cells, 72 hours, CellTiter Glo; read-out: IC50, cell viability, BT-474
Structures can show the parent of a compound that is named as a salt.
MEASUREMENT TYPE: pIC50
Numbers only, as −log10 of the molar value.

>>> measured_value("Cc1cc(Nc2ncnc3ccc(N4CC/C(=C\\CN(C)C)C4=O)cc23)ccc1Oc1ccn2ncnc2c1 [Compound 18, hydrochloride]")
8.43
>>> measured_value("C=C1CCN(c2ccc3ncnc(Nc4ccc(Oc5ccn(C)c(=O)c5)c(C)c4)c3c2)C1=O")
7.56

Would you be so kind as to report pIC50 for each listed record?
1. C=C1CCN(c2ccc3ncnc(Nc4ccc(Oc5cnc(C)cn5)c(C)c4)c3c2)C1=O
2. C=C1CCN(c2ccc3ncnc(Nc4cc(C)c(Oc5ccn6ncnc6c5)cc4F)c3c2)C1=O
3. C=C1CCN(c2ccc3ncnc(Nc4ccc(Oc5ccn6ncnc6c5)c(C)c4)c3c2F)C1=O
4. C=C1CCN(c2ccc3ncnc(Nc4ccc(Cc5ccc(C)nc5)cc4)c3c2)C1=O

Result:
[7.79, 8.49, 7.50, 7.28]
